Listed compounds paired with reported inhibition
- tgt: MAP/microtubule affinity-regulating kinase 4 (Homo sapiens) (UniProt Q96L34)
- Sequence (Q96L34 whole entry): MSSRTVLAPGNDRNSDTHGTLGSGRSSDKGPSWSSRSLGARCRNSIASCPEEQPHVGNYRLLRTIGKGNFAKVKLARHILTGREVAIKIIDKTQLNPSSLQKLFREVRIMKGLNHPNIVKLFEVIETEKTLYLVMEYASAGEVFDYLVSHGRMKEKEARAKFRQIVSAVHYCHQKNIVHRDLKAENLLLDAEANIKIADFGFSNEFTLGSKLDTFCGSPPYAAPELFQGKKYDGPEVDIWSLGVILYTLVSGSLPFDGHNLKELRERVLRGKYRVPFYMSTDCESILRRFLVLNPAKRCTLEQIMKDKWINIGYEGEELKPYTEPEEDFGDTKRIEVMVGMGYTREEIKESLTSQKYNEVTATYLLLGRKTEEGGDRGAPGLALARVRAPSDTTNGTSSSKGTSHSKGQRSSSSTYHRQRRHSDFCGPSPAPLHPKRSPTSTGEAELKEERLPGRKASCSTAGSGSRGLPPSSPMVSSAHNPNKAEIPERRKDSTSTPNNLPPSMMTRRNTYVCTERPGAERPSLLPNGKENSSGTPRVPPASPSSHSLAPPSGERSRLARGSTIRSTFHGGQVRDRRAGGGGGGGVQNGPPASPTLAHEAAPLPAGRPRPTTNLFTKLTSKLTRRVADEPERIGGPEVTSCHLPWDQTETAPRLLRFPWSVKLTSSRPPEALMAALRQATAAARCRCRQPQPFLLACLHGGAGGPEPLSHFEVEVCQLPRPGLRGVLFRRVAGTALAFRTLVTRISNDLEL
- measurementSetup: at 1 µM
Reply with just the number (in %).

Here are 5 compounds together with their reported answers.
COc1ccc2cc(-c3c(-c4ccncc4)nc(-c4ccc([S+](C)[O-])cc4)n3C)ccc2c1 (configuration not stated): 1.07
COc1ccc(COc2ccc(Cc3cnc(N)nc3N)cc2OC)cc1: 1.47
Nc1nc(-c2ccccn2)c(-c2ccc3ncccc3n2)s1: 2.26
CCn1c(-c2nonc2N)nc2cnc(Oc3cccc(NC(=O)c4ccc(OCCN5CCOCC5)cc4)c3)cc21: 4.43
CS(=O)(=O)CCNCc1nc(-c2ccc3ncnc(Nc4ccc(F)c(Cl)c4)c3c2)cs1: 0.31

Prompt line: Need inhibition, item Nc1ncnc2occ(-c3ccc(NC(=O)Nc4cc(C(F)(F)F)cc(C(F)(F)F)c4)cc3)c12
Response line: 1.47

Prompt line: Lookup O=C(Nc1n[nH]c2nc(-c3ccco3)c(Br)cc12)C1CC1
Response line: 2.43

Prompt line: Lookup CC(C)=Cc1cccc2c1/C(=N/Nc1ccc(S(N)(=O)=O)cc1)C(=O)N2
Response line: 20

Prompt line: Lookup CCc1cccc(NC(=O)Nc2ccc(Oc3ccc4nc(NC(=O)OC)[nH]c4c3)cc2)c1
Response line: -1.15

Prompt line: Lookup O=C1NC(=O)C(c2cccc(Cl)c2)=C1Nc1ccc(O)c(Cl)c1
Response line: 17.3

Prompt line: Lookup CN(C)c1cc2c(Nc3ccc4nc(Cc5ccccc5)[nH]c4c3)ncnc2cn1
Response line: 3

Prompt line: Lookup COc1ccc(-c2nn3ncccc3c2-c2ccnc(Nc3ccc(Cl)c(C(F)(F)F)c3)n2)cc1
Response line: 0.08

Prompt line: Lookup CC1=C(C(=O)Nc2ccc3[nH]ncc3c2)C(c2ccc3ccccc3c2)CC(=O)N1 (configuration not stated)
Response line: 1.73

* * *

Listed compounds paired with reported inhibition
- tgt: Phosphatidylinositol 4,5-bisphosphate 3-kinase catalytic subunit delta isoform (Homo sapiens) (UniProt O00329)
- Sequence (whole entry): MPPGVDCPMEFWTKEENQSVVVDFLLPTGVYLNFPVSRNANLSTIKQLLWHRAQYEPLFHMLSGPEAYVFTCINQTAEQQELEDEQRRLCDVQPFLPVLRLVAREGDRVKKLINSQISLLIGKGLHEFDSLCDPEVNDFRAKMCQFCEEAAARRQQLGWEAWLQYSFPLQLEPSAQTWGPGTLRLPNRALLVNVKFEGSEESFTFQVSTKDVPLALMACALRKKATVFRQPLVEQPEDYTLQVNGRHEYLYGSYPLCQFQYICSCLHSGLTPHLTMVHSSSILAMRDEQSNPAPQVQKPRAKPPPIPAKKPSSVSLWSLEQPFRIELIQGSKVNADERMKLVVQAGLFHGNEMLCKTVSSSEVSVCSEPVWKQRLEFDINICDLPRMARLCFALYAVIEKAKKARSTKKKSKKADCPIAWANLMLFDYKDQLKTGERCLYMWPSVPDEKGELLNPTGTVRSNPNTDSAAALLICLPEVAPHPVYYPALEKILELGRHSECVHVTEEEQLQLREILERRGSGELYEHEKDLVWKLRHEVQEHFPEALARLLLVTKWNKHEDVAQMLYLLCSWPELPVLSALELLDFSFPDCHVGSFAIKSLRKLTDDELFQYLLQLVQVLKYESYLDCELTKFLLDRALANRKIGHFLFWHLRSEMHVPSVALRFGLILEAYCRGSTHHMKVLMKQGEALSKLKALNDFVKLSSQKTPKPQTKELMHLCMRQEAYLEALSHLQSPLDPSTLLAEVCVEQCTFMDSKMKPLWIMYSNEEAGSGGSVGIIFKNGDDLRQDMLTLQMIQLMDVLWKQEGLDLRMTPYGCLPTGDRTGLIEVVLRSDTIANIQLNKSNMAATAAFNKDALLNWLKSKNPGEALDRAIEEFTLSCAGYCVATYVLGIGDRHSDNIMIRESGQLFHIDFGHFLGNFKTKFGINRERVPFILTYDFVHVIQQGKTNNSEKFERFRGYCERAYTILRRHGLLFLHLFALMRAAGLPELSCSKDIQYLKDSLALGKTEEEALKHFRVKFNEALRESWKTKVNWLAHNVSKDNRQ
- measurementSetup: at 1 µM
Reply with just the number (in %).

Here are 3 compounds together with their reported answers.
O=C1NC(=O)C(c2ccccc2Cl)=C1Nc1cccc(O)c1: 3.71
COc1ccc(COc2ccc(Cc3cnc(N)nc3N)cc2OC)cc1: 0.68
CC1=C(C(=O)Nc2ccc3[nH]ncc3c2)C(c2ccc3ccccc3c2)CC(=O)N1 (configuration not stated): 4.97

Prompt line: Need inhibition, item O=C1Nc2ccc(C(=O)c3ccco3)cc2C1=Cc1cc(Cl)c(O)c(Cl)c1
Response line: 24.9

Prompt line: Lookup Cc1cc(O)cc(C)c1/C=C/c1cncc(-c2nn[nH]n2)c1
Response line: 6.52

Prompt line: Lookup Nc1ncnc2occ(-c3ccc(NC(=O)Nc4cc(C(F)(F)F)cc(C(F)(F)F)c4)cc3)c12
Response line: 3.45

Prompt line: Lookup CCn1c(-c2nonc2N)nc2c(C#CC(C)(C)O)nc(CN3CCCC3)cc21
Response line: 3.83
